Tested on: 786-0 renal
Test: NCI-60 one-dose screen, 48 h
Settings: 10 µM unless noted
Description: Cells are grown in 96 well plates and exposed to the test compound for 48 hours. Compounds are tested at a single concentration, which is 10^-5 M for most compounds. The reported endpoint is percent growth (GI% or GIPRCNT), where numbers from 0 - 100% represent growth inhibition, and numbers from -100% - 0 represent cell death. For example, a value of 40 represents 60% growth inhibition. A value of 0 means no net growth occurred over the course of the experiment. […]
About 83,000 compounds went through this panel and 20% of them were active in at least one assay; those are over-represented in the sample as a whole. Calls of active or inactive are those of the source. Rule for the calls: active = growth percent below 10; inactive = the rest.
Outcomes: t = active, f = inactive

- compound: "O=C1N(Cc2ccccc2Cl)c2ccccc2C12NN=C(c1ccccc1)S2 (stereo not given)"
  group.label: "f"
- compound: "O=C(/C=C/c1ccc(F)cc1)N1CCN(C(=O)/C=C/c2ccc(C(F)(F)F)cc2)CC1"
  group.label: "f"
- compound: "CC(C)[C@@H]1C=C2CC[C@H]3[C@](C)(CN)CCC[C@]3(C)[C@H]2CC1"
  group.label: "f"
- compound: "COC(=O)C(Br)(C(=O)OC)C(Br)C(Br)C(Br)c1ccccc1 (stereo not given)"
  group.label: "f"
- compound: "Clc1ccc(-c2cnc3c(-c4ccnc(N5CCNCC5)c4)cnn3c2)cc1"
  group.label: "t"
- compound: "COc1ccc(CNc2c3ccccc3nc3ccc(OC)cc23)cc1"
  group.label: "f"
- compound: "CCCCc1nc(Cl)c(C2CC(c3ccc(S(N)(=O)=O)cc3)=NN2c2cc(Cl)cc(Cl)c2)[nH]1 (stereo not given)"
  group.label: "f"
- compound: "CS(=O)(=O)c1ccc(C(=O)N/N=C/c2cccc3ccccc23)cc1"
  group.label: "f"
- compound: "CCCCCCCCN(CCCCCCCC)C(=O)CCl"
  group.label: "f"
- compound: "CS(=O)(=O)c1ccc(C(=O)N/N=C/c2ccccc2Cl)cc1"
  group.label: "f"

Numbers sourced from PubChem BioAssay (NCI).
